# assayOverview: Stability in organic medium (dimethyl sulfoxide) by UV-Vis spectroscopy
# Format: physicochemical
# testContext: time 0.5 h, band 357-425 nm (λmax in column head)
measuredAttribute: Relative variation of the maximum absorbance of the charge transfer bands
Don't forget the unit after the value.

compound	valueObserved
CC(=O)C1=C[CH]([Ru-]2([PH](c3ccccc3)(c3ccccc3)c3ccccc3)[n+]3ccccc3-c3cccc[n+]32)C=C1.O=S(=O)([O-])C(F)(F)F (centres unmarked)	0.0%
NNC(=O)C1=C[CH]([Ru-]2([PH](c3ccccc3)(c3ccccc3)c3ccccc3)[n+]3ccccc3-c3cccc[n+]32)C=C1.O=S(=O)([O-])C(F)(F)F (centres unmarked)	−0.1%
CCOC(=O)Oc1cc[n+]2c(c1)-c1cc(OC)cc[n+]1[Ru-]2([CH]1C=CC=C1)[PH](c1ccccc1)(c1ccccc1)c1ccccc1.O=S(=O)([O-])C(F)(F)F (centres unmarked)	0.2%
CC(=O)C1=C[CH]([Ru-]2([PH](c3ccccc3)(c3ccccc3)c3ccccc3)[n+]3cccc4c5nccnc5c5ccc[n+]2c5c43)C=C1.O=S(=O)([O-])C(F)(F)F (centres unmarked)	−0.1%
CCC(=O)C1=C[CH]([Ru-]2([PH](c3ccccc3)(c3ccccc3)c3ccccc3)[n+]3ccccc3-c3cccc[n+]32)C=C1.O=S(=O)([O-])C(F)(F)F (centres unmarked)	0.1%

For every listed record, write down its Relative variation of the maximum absorbance of the charge transfer bands.
1. O=C(Cc1ccccc1)C1=C[CH]([Ru-]2([PH](c3ccccc3)(c3ccccc3)c3ccccc3)[n+]3ccccc3-c3cccc[n+]32)C=C1.O=S(=O)([O-])C(F)(F)F (centres unmarked)
2. CC(=O)C1=C[CH]([Ru-]2([PH](c3ccccc3)(c3ccccc3)c3ccccc3)[n+]3cccc4ccc5ccc[n+]2c5c43)C=C1.O=S(=O)([O-])C(F)(F)F (centres unmarked)
3. COc1cc[n+]2c(c1)-c1cc(O)cc[n+]1[Ru-]2([CH]1C=CC=C1)[PH](c1ccccc1)(c1ccccc1)c1ccccc1.O=S(=O)([O-])C(F)(F)F (centres unmarked)

Result block:
1: 0.2%; 2: 0.2%; 3: −0.2%

###

# System: MCF-7 (FGFR−)
# assayOverview: MTT cytotoxicity assay
# testContext: read-out: Cytotoxic activity expressed as IC50; Table 6; MCF-7 (FGFR−); 48 h, 37° C.
measuredAttribute: IC50 (µM)
Answers are plain numbers, in µM.

Query block: Read the entry NNC(=O)C1=C[CH]([Ru-]2([PH](c3ccccc3)(c3ccccc3)c3ccccc3)[n+]3ccccc3-c3cccc[n+]32)C=C1.O=S(=O)([O-])C(F)(F)F (stereo not shown) [compound 4] and write its reported IC50.
Result block: 5.8

###

# assayOverview: Stability in aqueous medium (dimethyl sulfoxide/Dulbecco's Modified Eagle Medium) by UV-Vis spectroscopy
# Format: physicochemical
# testContext: 5% dimethyl sulfoxide/95% Dulbecco's Modified Eagle Medium; time 1 h; band 358-400 nm (λmax in column head)
measuredAttribute: Relative variation of the maximum absorbance of the charge transfer bands (%)
One number for each entry, in %.

# count of solved cases: 2
molecule	valueObserved
COc1cc[n+]2c(c1)-c1cc(O)cc[n+]1[Ru-]2([CH]1C=CC=C1)[PH](c1ccccc1)(c1ccccc1)c1ccccc1.O=S(=O)([O-])C(F)(F)F (stereo not drawn)	−1.3
O=C(Cc1ccccc1)C1=C[CH]([Ru-]2([PH](c3ccccc3)(c3ccccc3)c3ccccc3)[n+]3ccccc3-c3cccc[n+]32)C=C1.O=S(=O)([O-])C(F)(F)F (stereo not drawn)	−1.0

For every listed record, write down its Relative variation of the maximum absorbance of the charge transfer bands.
1. CC(=O)C1=C[CH]([Ru-]2([PH](c3ccccc3)(c3ccccc3)c3ccccc3)[n+]3ccccc3-c3cccc[n+]32)C=C1.O=S(=O)([O-])C(F)(F)F (stereo not drawn)
2. NNC(=O)C1=C[CH]([Ru-]2([PH](c3ccccc3)(c3ccccc3)c3ccccc3)[n+]3ccccc3-c3cccc[n+]32)C=C1.O=S(=O)([O-])C(F)(F)F (stereo not drawn)
3. CCC(=O)C1=C[CH]([Ru-]2([PH](c3ccccc3)(c3ccccc3)c3ccccc3)[n+]3ccccc3-c3cccc[n+]32)C=C1.O=S(=O)([O-])C(F)(F)F (stereo not drawn)

Result block:
−3.4
−0.9
−0.9

Query block: Read the entry CCOC(=O)Oc1cc[n+]2c(c1)-c1cc(OC)cc[n+]1[Ru-]2([CH]1C=CC=C1)[PH](c1ccccc1)(c1ccccc1)c1ccccc1.O=S(=O)([O-])C(F)(F)F (stereo not drawn) and write its reported Relative variation of the maximum absorbance of the charge transfer bands.
Result block: 0.1

###

# assayOverview: Stability in aqueous medium (dimethyl sulfoxide/Dulbecco's Modified Eagle Medium) by UV-Vis spectroscopy
# Format: physicochemical
# testContext: 5% dimethyl sulfoxide/95% Dulbecco's Modified Eagle Medium; time 4 h; band 292-296 nm (λmax in column head)
measuredAttribute: Relative variation of the maximum absorbance of the π→π* transitions (%)
One number for each entry, in %.

# count of solved cases: 3
molecule	valueObserved
CCC(=O)C1=C[CH]([Ru-]2([PH](c3ccccc3)(c3ccccc3)c3ccccc3)[n+]3ccccc3-c3cccc[n+]32)C=C1.O=S(=O)([O-])C(F)(F)F (stereo not drawn)	0.0
COc1cc[n+]2c(c1)-c1cc(O)cc[n+]1[Ru-]2([CH]1C=CC=C1)[PH](c1ccccc1)(c1ccccc1)c1ccccc1.O=S(=O)([O-])C(F)(F)F (stereo not drawn)	−5.1
CC(=O)C1=C[CH]([Ru-]2([PH](c3ccccc3)(c3ccccc3)c3ccccc3)[n+]3ccccc3-c3cccc[n+]32)C=C1.O=S(=O)([O-])C(F)(F)F (stereo not drawn)	0.7

For every listed record, write down its Relative variation of the maximum absorbance of the π→π* transitions.
1. O=C(Cc1ccccc1)C1=C[CH]([Ru-]2([PH](c3ccccc3)(c3ccccc3)c3ccccc3)[n+]3ccccc3-c3cccc[n+]32)C=C1.O=S(=O)([O-])C(F)(F)F (stereo not drawn)
2. NNC(=O)C1=C[CH]([Ru-]2([PH](c3ccccc3)(c3ccccc3)c3ccccc3)[n+]3ccccc3-c3cccc[n+]32)C=C1.O=S(=O)([O-])C(F)(F)F (stereo not drawn)
3. CCOC(=O)Oc1cc[n+]2c(c1)-c1cc(OC)cc[n+]1[Ru-]2([CH]1C=CC=C1)[PH](c1ccccc1)(c1ccccc1)c1ccccc1.O=S(=O)([O-])C(F)(F)F (stereo not drawn)

Result block:
["−0.4", "−1.2", "−0.9"]

###

# System: MDA-MB-231 (FGFR−)
# assayOverview: MTT cytotoxicity assay
# testContext: read-out: Cytotoxic activity expressed as IC50; Table 6; MDA-MB-231 (FGFR−); 48 h, 37° C.
measuredAttribute: pIC50
One number for each entry, as −log10 of the molar value.

Query block: Read the entry NNC(=O)C1=C[CH]([Ru-]2([PH](c3ccccc3)(c3ccccc3)c3ccccc3)[n+]3ccccc3-c3cccc[n+]32)C=C1.O=S(=O)([O-])C(F)(F)F (stereo not shown) [compound 4] and write its reported pIC50.
Result block: 5.21

###

Would you mind telling me the reported Relative variation of the maximum absorbance of the π→π* transitions of each entry?
# assayOverview: Stability in organic medium (dimethyl sulfoxide) by UV-Vis spectroscopy
# Format: physicochemical
# testContext: time 0.5 h, band 289-300 nm (λmax in column head)
One number for each entry, in %.

# count of solved cases: 4
molecule	valueObserved
CCC(=O)C1=C[CH]([Ru-]2([PH](c3ccccc3)(c3ccccc3)c3ccccc3)[n+]3ccccc3-c3cccc[n+]32)C=C1.O=S(=O)([O-])C(F)(F)F (centres unmarked)	0.2
NNC(=O)C1=C[CH]([Ru-]2([PH](c3ccccc3)(c3ccccc3)c3ccccc3)[n+]3ccccc3-c3cccc[n+]32)C=C1.O=S(=O)([O-])C(F)(F)F (centres unmarked)	0.3
COc1cc[n+]2c(c1)-c1cc(O)cc[n+]1[Ru-]2([CH]1C=CC=C1)[PH](c1ccccc1)(c1ccccc1)c1ccccc1.O=S(=O)([O-])C(F)(F)F (centres unmarked)	0.0
CC(=O)C1=C[CH]([Ru-]2([PH](c3ccccc3)(c3ccccc3)c3ccccc3)[n+]3ccccc3-c3cccc[n+]32)C=C1.O=S(=O)([O-])C(F)(F)F (centres unmarked)	−0.5

Query block: Read the entry O=C(Cc1ccccc1)C1=C[CH]([Ru-]2([PH](c3ccccc3)(c3ccccc3)c3ccccc3)[n+]3ccccc3-c3cccc[n+]32)C=C1.O=S(=O)([O-])C(F)(F)F (centres unmarked) and write its reported Relative variation of the maximum absorbance of the π→π* transitions.
Result block: −0.2

###

# assayOverview: Stability in organic medium (dimethyl sulfoxide) by UV-Vis spectroscopy
# Assay type: physicochemical
# testContext: time 0.25 h, band 357-425 nm (λmax in column head)
measuredAttribute: Relative variation of the maximum absorbance of the charge transfer bands (%)
Answers are plain numbers, in %.

# count of solved cases: 2
compound	valueObserved
CC(=O)C1=C[CH]([Ru-]2([PH](c3ccccc3)(c3ccccc3)c3ccccc3)[n+]3cccc4c5nccnc5c5ccc[n+]2c5c43)C=C1.O=S(=O)([O-])C(F)(F)F (stereo not drawn) [compound 7]	0.0
NNC(=O)C1=C[CH]([Ru-]2([PH](c3ccccc3)(c3ccccc3)c3ccccc3)[n+]3ccccc3-c3cccc[n+]32)C=C1.O=S(=O)([O-])C(F)(F)F (stereo not drawn) [compound 4]	0.0

Please examine the following record next.
Query block: Read the entry CCC(=O)C1=C[CH]([Ru-]2([PH](c3ccccc3)(c3ccccc3)c3ccccc3)[n+]3ccccc3-c3cccc[n+]32)C=C1.O=S(=O)([O-])C(F)(F)F (stereo not drawn) [compound 8] and write its reported Relative variation of the maximum absorbance of the charge transfer bands.
Result block: 0.0
